Record form. Attribute: pIC50. Fill in for each entry.
test system: 677734-321-R-J1-PDC complex spheroid viability; assay: Anticancer human tumor 677734-321-R-J1-PDC patient-derived soft tissue sarcoma cell line growth inhibition [POLQ]; conditions: curve of first compound; second compound 1 µM;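 further: spheroids exposed to compounds for one week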
pIC50: −log10 of the molar value.

As a guide, the following entries are already answered.
1. C=CC(=O)N1CCN(c2nc(=O)n(-c3c(C)ccnc3C(C)C)c3nc(-c4c(O)cccc4F)c(F)cc23)C(C)C1 (stereo not drawn) + Cc1cccc(N(C)C(=O)C2C(O)CCN2c2nc(C)cc(C(F)(F)F)c2C#N)c1	< 5.00
2. Nc1ccn(C2OC(CO)C(O)C2(F)F)c(=O)n1 (stereo not drawn) + Cc1cccc(N(C)C(=O)C2C(O)CCN2c2nc(C)cc(C(F)(F)F)c2C#N)c1	> 7.50

# next compound below
**Query** Using the record for COc1ccc([C@@H](O)c2cc(-c3ncnc4cc(N5CCOCC5)ccc34)c(F)cc2Cl)nn1 + COC1C(OC(N)=O)C(O)C(Oc2ccc3c(O)c(NC(=O)c4ccc(O)c(CC=C(C)C)c4)c(=O)oc3c2C)OC1(C)C , report its pIC50.
**Result** < 5.00

The reported numbers originate from PubChem BioAssay AID1963842.
